System: TK-10 renal
test-summary: NCI-60 one-dose screen, 48 h (100 = growth as untreated, 0 = no growth, -100 = all killed)
conditions: 10 µM unless noted
Compounds without any hit were thinned out: in the full panel of roughly 83,000, 20% have a hit.
outcome-measure: growth (%)
State the answer as a number, implicitly in %.

compound: CC(=O)O[C@@H]1CC2C(C)(C)CCCC2(C)C2=C1C(=O)C(C(C)C)=CC2=O (some centres undefined)
measured-target: TK-10 renal
numeric-value: 18.6
--
compound: c1ccc2oc(-c3cnc4nonc4n3)cc2c1
measured-target: TK-10 renal
numeric-value: 132
--
compound: C=C(C)[C@@H]1CC[C@]2(C(=O)NC(COC(=O)C(Cl)Cl)(COC(=O)C(Cl)Cl)COC(=O)C(Cl)Cl)CC[C@]3(C)[C@H](CC[C@@H]4[C@@]5(C)CC[C@H](OC(C)=O)C(C)(C)[C@@H]5CC[C@]43C)[C@@H]12
measured-target: TK-10 renal
numeric-value: 75.8
--
compound: CCOC(=O)c1ccc(NC(=O)CSC(N)=O)cc1
measured-target: TK-10 renal
numeric-value: 113
--
compound: COc1cc2ncnc(Nc3ccc(S(=O)(=O)Nc4cc(C)on4)cc3)c2cc1OCCCN1CCN(c2ccc([N+](=O)[O-])cc2)CC1
measured-target: TK-10 renal
numeric-value: 103
--
compound: COc1ncnc2[nH]cc(CN3CCN(c4ccc(F)cc4)CC3)c12
measured-target: TK-10 renal
numeric-value: 90.1
--
compound: CSc1nc(N)c2[nH]c(-c3cc4ccccc4[nH]c3=O)nc2n1
measured-target: TK-10 renal
numeric-value: 106
--
compound: O=C(Nc1ccc(Br)cc1)c1ccc(Cl)c(Cl)c1
measured-target: TK-10 renal
numeric-value: 107

Now, please, on to the next compound.
What value of growth has been reported for the following compound? CS(=O)(=O)c1ccc(C(=O)N/N=C/c2ccccc2O)cc1
45.8

----------
System: SNB-19 CNS
test-summary: NCI-60 one-dose screen, 48 h (100 = growth as untreated, 0 = no growth, -100 = all killed)
conditions: 10 µM unless noted
This is part of a sample that, as a whole, favours compounds with a hit. Of some 83,000 tested, about 20% had one in any assay.
Overview of reported growth across a group of compounds:
State the answer as a number, implicitly in %.

compound: N=C(N)c1ccc(-c2ccc(-c3cccs3)s2)cc1F
outcome-measure: growth
numeric-value: -65.1
--
compound: O/N=C/c1ccncc1
outcome-measure: growth
numeric-value: 122
--
compound: COc1ccc2c(c1)OC1=C(C(=O)OC1)C2c1cc(OC)c2c(c1)OCCO2 (stereo not drawn)
outcome-measure: growth
numeric-value: 38.8

What value of growth has been reported for the following compound? COc1ccc(Oc2nc(Nc3ccc(N4CCOCC4)cc3)ncc2NC(=O)Nc2cccc(OC)c2)cc1
72

What value of growth has been reported for the following compound? O=C(CCl)Nc1cc(O)c2c(c1)C(=O)c1cccc(O)c1C2=O
-36.5

What value of growth has been reported for the following compound? CC(C)(C)c1nn(-c2ccccc2)c2c1C(=O)CSC(c1ccc3c(c1)OCO3)N2 (stereo not drawn)
101

What value of growth has been reported for the following compound? Cc1cccc(N=NC(=S)NNc2cccc(C)c2)c1
106

----------
System: SK-MEL-28 melanoma
test-summary: NCI-60 one-dose screen, 48 h (100 = growth as untreated, 0 = no growth, -100 = all killed)
conditions: 10 µM unless noted
The panel holds about 83,000 compounds, 20% with a hit somewhere; the sample as a whole holds those more often.
Overview of reported growth across a group of compounds:
State the answer as a number, implicitly in %.

What growth appears in the records for this compound with SK-MEL-28 melanoma? CCC1N=C(N)N=C(N)N1c1ccc(Cl)cc1 (stereo not drawn)
101

What growth appears in the records for this compound with SK-MEL-28 melanoma? COc1ccccc1CNCCCN1C(=O)c2ccc3c4c(ccc(c24)C1=O)C(=O)N(CCCNCCCN)C3=O
22.7

These data points were gathered from PubChem BioAssay (NCI).
